Molecular target: Monoglyceride lipase (Rattus norvegicus, UniProt Q8R431)
Sequence (Q8R431 whole entry): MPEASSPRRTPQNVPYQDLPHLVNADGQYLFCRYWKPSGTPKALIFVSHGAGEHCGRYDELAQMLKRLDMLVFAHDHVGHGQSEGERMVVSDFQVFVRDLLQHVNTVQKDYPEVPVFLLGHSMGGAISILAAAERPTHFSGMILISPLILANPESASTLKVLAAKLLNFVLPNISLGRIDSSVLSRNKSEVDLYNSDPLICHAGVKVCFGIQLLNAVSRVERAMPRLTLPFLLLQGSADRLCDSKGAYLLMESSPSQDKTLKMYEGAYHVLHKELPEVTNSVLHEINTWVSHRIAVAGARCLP
OBSERVABLE: pIC50
Answers are plain numbers, as −log10 of the molar value.

Recorded pIC50 of O=C1CO[C@H]2CCN(C(=O)N3CCC(Cc4ccc(C(F)(F)F)cc4)CC3)C[C@H]2N1 , please.
7.15

###

Biological target: Monoglyceride lipase (Homo sapiens)
Sequence (Q99685 whole entry): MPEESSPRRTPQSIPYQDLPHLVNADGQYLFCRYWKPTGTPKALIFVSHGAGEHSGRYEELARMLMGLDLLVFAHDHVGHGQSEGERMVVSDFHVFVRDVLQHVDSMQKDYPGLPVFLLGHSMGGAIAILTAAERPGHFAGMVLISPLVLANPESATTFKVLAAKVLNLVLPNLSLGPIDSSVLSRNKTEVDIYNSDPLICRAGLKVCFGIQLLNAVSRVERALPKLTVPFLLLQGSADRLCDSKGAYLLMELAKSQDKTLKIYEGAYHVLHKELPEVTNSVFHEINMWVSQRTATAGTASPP
Experiment: Inhibition of human MAGL using native substrate by Rapidfire MS assay
Details: read-out: pIC50 (converted)
Assignment: determine reported log10(IC50) for the given compounds.
Units before log transform: nM; reported quantity: IC50; transform: log10.

Reference set (5 entries):
COMPOUND	TEST TARGET	log10(IC50)
O=C1CO[C@H]2CCN(C(=O)N3CCC(Cc4ccc(C(F)(F)F)cc4)CC3)C[C@H]2N1	Monoglyceride lipase (Homo sapiens)	1.45
O=C1COc2ccc(C(=O)N3CCC(Cc4ccc(C(F)(F)F)cc4)CC3)cc2N1	Monoglyceride lipase (Homo sapiens)	1.46
O=C1COc2ccc(C(=O)N3CCC(Cc4ccc(F)cc4)CC3)cc2N1	Monoglyceride lipase (Homo sapiens)	1.76
O=C(c1ccc2cn[nH]c2c1)N1CCC(Cc2ccc(C(F)(F)F)cc2)CC1	Monoglyceride lipase (Homo sapiens)	2.96
O=C1COc2ccc(C(=O)N3CCC(Cc4cccc(C(F)(F)F)c4)CC3)cc2N1	Monoglyceride lipase (Homo sapiens)	1.65

Look at each compound and report its log10(IC50).
1. O=C1COc2ccc(C(=O)N3CCC(C(c4ccccc4)c4ccccc4)CC3)cc2N1
2. O=C1CO[C@H]2CCN(C(=O)N3CCC(Cc4ccc(C(F)(F)F)cc4)CC3)C[C@@H]2N1 (racemic)
3. O=C1CSc2ccc(C(=O)N3CCC(Cc4ccc(C(F)(F)F)cc4)CC3)cc2N1
4. O=C1COc2ccc(C(=O)N3CCC(Cc4cccc(F)c4)CC3)cc2N1

1: -0.36; 2: 2.54; 3: 3.38; 4: 1.69

Recorded values, source ChEMBL document CHEMBL6127097.
